Tested on: HCT-116 colon
Assay: NCI tumour cell line growth inhibition, 48 h
Listing of recorded TGI by entry.

Solved cases below.
CCCCCCCC/C=C1\CCC(CN2CCOCC2)C1=O (stereo not drawn): 13.6 µM
Cc1nc(N)nc(N)c1CCCc1ccccc1: > 100 µM

Problem: Data request, read-out TGI, for "CCSc1nc(=S)n(-c2ccccc2)c(C)c1C(C)=O"
Solution: > 100 µM

====

System: CAKI-1 renal
Assay: NCI tumour cell line growth inhibition, 48 h
Listing of recorded TGI by entry.

Solved cases below.
CNC(=O)SCC(NC(=O)CCC(N)C(=O)O)C(=O)NCC(=O)O (stereo not given): > 100 µM
CC1SC2(CCCCC2)N(NC(=O)CSc2nc3ccc(Cl)cc3c(=O)n2-c2ccccc2)C1=O (stereo not given): > 100 µM
Cc1cc(OCCOCCC(F)(F)P(=O)(O)O)ccc1CCc1cnc2c(N)nc3cc(CCC(=O)O)ccc3c2c1: > 100 µM
O=C(C/C(=N/O)C(F)(F)F)c1cccs1: > 100 µM
CCN(CC)CCn1c(=O)c2c(C)c3oc4ccccc4oc3c(C)c2c1=O: > 100 µM

Problem: Data request, read-out TGI, for "COC1=C(Cl)C(=O)c2c(O)ccc(O)c2C1=O"
Solution: 1.6 µM

Problem: Data request, read-out TGI, for "C=CCOC(OCC=C)/C(Br)=C/C"
Solution: > 100 µM

Problem: Data request, read-out TGI, for "CC(C)C(=O)/C=C/S/C=C/C(=O)C(C)C"
Solution: 10.7 µM

Problem: Data request, read-out TGI, for COC(=O)c1c(C)cccc1C1CN=NC12Cc1cc(C)cc(C)c1C2=O (stereo not given)
Solution: > 100 µM

Problem: Data request, read-out TGI, for CCOC(=O)C12C(C(=O)OC)=C(C)N(NC(=O)Nc3ccccc3)C1(N)N(NC(=O)Nc1ccccc1)C(C)=C2C(=O)OC (stereo not given)
Solution: > 100 µM

From: PubChem BioAssay (NCI)
